B1: Pistol ribozyme (parent)
chain: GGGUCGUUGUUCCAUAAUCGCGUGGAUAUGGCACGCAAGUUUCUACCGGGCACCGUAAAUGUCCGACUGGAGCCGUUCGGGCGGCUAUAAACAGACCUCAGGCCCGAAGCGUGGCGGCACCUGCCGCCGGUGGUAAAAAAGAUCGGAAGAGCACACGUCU

variants of: B1; test: aptazyme ON/OFF ratio, guanine; higher = stronger switching; co-transcriptional cleavage with and without guanine
readout kind: aptazyme ON/OFF ratio

# variant identifier, readout kind, result
data = [
    ("U8C G9U C12G C13A", "aptazyme ON/OFF ratio", 1.21),
    ("G9A U11G C12A C13G", "aptazyme ON/OFF ratio", 1.31),
    ("U7G U8G G9C U10G U11G C13U", "aptazyme ON/OFF ratio", 1.28),
]

For record U7G U8G G9U U10G C12G C13U the listed aptazyme ON/OFF ratio is 1.35

For record U7G U8A G9C U10C C13G the listed aptazyme ON/OFF ratio is 1.01

For record U7C U8C the listed aptazyme ON/OFF ratio is 3.51

For record U8C C12U C13A the listed aptazyme ON/OFF ratio is 1.26

For record U7C U8A G9C U10A C12G the listed aptazyme ON/OFF ratio is 1.26

For record U8A G9C U10C U11A C12A the listed aptazyme ON/OFF ratio is 1.06

For record G9A U10G the listed aptazyme ON/OFF ratio is 3.45
